Target: NL20 human bronchial epithelial cells expressing human Z-AAT (Homo sapiens, UniProt P01009, E366K)
Construct: expressed in transfected cells; host or cells: NL20 human bronchial epithelial cells (NL20-SI line; doxycycline added with compounds)
Sequence (P01009 25-418 E366K): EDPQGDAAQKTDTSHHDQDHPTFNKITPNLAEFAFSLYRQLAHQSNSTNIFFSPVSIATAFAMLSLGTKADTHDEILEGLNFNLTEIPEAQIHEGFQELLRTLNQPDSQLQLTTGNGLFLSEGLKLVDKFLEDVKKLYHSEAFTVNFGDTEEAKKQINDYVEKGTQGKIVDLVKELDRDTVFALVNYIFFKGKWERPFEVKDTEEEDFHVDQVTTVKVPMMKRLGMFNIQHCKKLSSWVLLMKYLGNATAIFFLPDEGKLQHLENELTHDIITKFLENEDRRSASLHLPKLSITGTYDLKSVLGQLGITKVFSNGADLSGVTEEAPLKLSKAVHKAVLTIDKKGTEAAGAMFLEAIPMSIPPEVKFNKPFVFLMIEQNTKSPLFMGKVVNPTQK
Assay: AAT Function Assay (MSD Assay NL20-SI Cell Line)
Assay type: cell-based
Details: read-out: NL20 Functional EC50
EC50 listing for selected compounds.

Give EC50 for `COCc1cc(-c2c(C(C)(C)COC)n(-c3ccc(F)c(F)c3)c3cc(F)cc(O)c23)ccc1C(=O)O`
< 0.5 µM

Give EC50 for `O=C(O)c1cc(-c2c(C3CCOCC3)n(-c3ccc(F)cc3)c3cccc(O)c23)cs1`
> 2 µM

Give EC50 for `COCC1(c2c(-c3ccc(C(=O)O)cc3)c3c(O)cc(F)cc3n2-c2ccc(F)c(OC)c2)COC1`
0.5 to 2 µM
